The values you see were collected from the supplement of paper PMC5998384.

In this section we review reported solubility in G1/S (log2) values for a set of sequences.
- Test system: HeLa Kyoto
- experiment.summary: solubility in G1/S (NP-40 vs SDS abundance) (log2 ratio); higher = more soluble
- applied.conditions: cell cycle stage: G1/S
Write the value as a bare number.

Recorded solubility in G1/S (log2), per entry:
sequence.entry	solubility in G1/S (log2)
MRDADADAGGGADGGDGRGGHSCRGGVDTAAAPAGGAPPAHAPGPGRDAASAARGSRMRPHIFTLSVPFPTPLEAEIAHGSLAPDAEPHQRVVGKDLTVSGRILVVRWKAEDCRLLRISVINFLDQLSLVVRTMQRFGPPVSR [LAGE3]	0.0355
MAQEKMELDLEPDTSYGGTLRRSSSAPLIHGLSDLSQVFQPYTLRTRRNSTTIMSRHSLEEGLDMVNRETAHEREMQTAMQISQSWDESLSLSDSDFDKPEKLYSPKRIDFTPVSPAPSPTRGFGKMFVSSSGLPPSPVPSPRRFSRRSQSPVKCIRPSVLGPLKRKGEMETESQPKRLFQGTTNMLSPDAAQLSDLSSCSDILDGSSSSSGLSSDPLAKGSATAESPVACSNSCSSFILMDDLSPK [FAM122B]	1.18

Supply recorded solubility in G1/S (log2) for MGSLSGLRLAAGSCFRLCERDVSSSLRLTRSSDLKRINGFCTKPQESPGAPSRTYNRVPLHKPTDWQKKILIWSGRFKKEDEIPETVSLEMLDAAKNKMRVKISYLMIALTVVGCIFMVIEGKKAAQRHETLTSLNLEKKARLKEEAAMKAKTE [FAM162A] here. 0.312

Supply recorded solubility in G1/S (log2) for MAMQAAKRANIRLPPEVNRILYIRNLPYKITAEEMYDIFGKYGPIRQIRVGNTPETRGTAYVVYEDIFDAKNACDHLSGFNVCNRYLVVLYYNANRAFQKMDTKKKEEQLKLLKEKYGINTDPPK [SF3B6] here. -0.381

* * *

- System: HeLa Kyoto
- experiment.summary: solubility change mitosis vs G1/S (difference of NP-40 vs SDS log2 ratios) (log2 ratio difference); higher = more soluble in mitosis
solubility change mitosis (log2) below -0.02 gives No; solubility change mitosis (log2) at or above it gives Yes.

sequence.entry	category.label
MTERFDCHHCNESLFGKKYILREESPYCVVCFETLFANTCEECGKPIGCDCKDLSYKDRHWHEACFHCSQCRNSLVDKPFAAKEDQLLCTDCYSNEYSSKCQECKKTIMPGTRKMEYKGSSWHETCFICHRCQQPIGTKSFIPKDNQNFCVPCYEKQHAMQCVQCKKPITTGGVTYREQPWHKECFVCTACRKQLSGQRFTARDDFAYCLNCFCDLYAKKCAGCTNPISGLGGTKYISFEERQWHNDCFNCKKCSLSLVGRGFLTERDDILCPDCGKDI [FHL2]	No
MSGSVLFTAGERWRCFLTPSRSSLYWALHNFCCRKKSTTPKKITPNVTFCDENAKEPENALDKLFSSEQQASILHVLNTASTKELEAFRLLRGRRSINIVEHRENFGPFQNLESLMNVPLFKYKSTVQVCNSILCPKTGREKRKSPENRFLRKLLKPDIERERLKAVNSIISIVFGTRRIAWAHLDRKLTVLDWQQSDRWSLMRGIYSSSVYLEEISSIISKMPKADFYVLEKTGLSIQNSSLFPILLHFHIMEAMLYALLNKTFAQDGQHQVLSMNRNAVGKHFELMIGDSRTSGKELVKQFLFDSILKADPRVFFPSDKIVHYRQMFLSTELQRVEELYDSLLQAIAFYELAVFDSQP [TEFM]	Yes
MDGLLNPRESSKFIAENSRDVFIDSGGVRRVAELLLAKAAGPELRVEGWKALHELNPRAADEAAVNWVFVTDTLNFSFWSEQDEHKCVVRYRGKTYSGYWSLCAAVNRALDEGIPITSASYYATVTLDQVRNILRSDTDVSMPLVEERHRILNETGKILLEKFGGSFLNCVRESENSAQKLMHLVVESFPSYRDVTLFEGKRVSFYKRAQILVADTWSVLEGKGDGCFKDISSITMFADYRLPQVLAHLGALKYSDDLLKKLLKGEMLSYGDRQEVEIRGCSLWCVELIRDCLLELIEQKGEKPNGEINSILLDYYLWDYAHDHREDMKGIPFHRIRCIYY [C9ORF64]	No
MSSEPPPPPQPPTHQASVGLLDTPRSRERSPSPLRGNVVPSPLPTRRTRTFSATVRASQGPVYKGVCKCFCRSKGHGFITPADGGPDIFLHISDVEGEYVPVEGDEVTYKMCSIPPKNEKLQAVEVVITHLAPGTKHETWSGHVISS [CARHSP1]	Yes
MDDTLFQLKFTAKQLEKLAKKAEKDSKAEQAKVKKALLQKNVECARVYAENAIRKKNEGVNWLRMASRVDAVASKVQTAVTMKGVTKNMAQVTKALDKALSTMDLQKVSSVMDRFEQQVQNLDVHTSVMEDSMSSATTLTTPQEQVDSLIMQIAEENGLEVLDQLSQLPEGASAVGESSVRSQEDQLSRRLAALRN [CHMP1A]	Yes

Now look at this entry.
Check this sequence for solubility change mitosis (log2) at or above -0.02: MRLSWFRVLTVLSICLSAVATATGAEGKRKLQIGVKKRVDHCPIKSRKGDVLHMHYTGKLEDGTEFDSSLPQNQPFVFSLGTGQVIKGWDQGLLGMCEGEKRKLVIPSELGYGERGAPPKIPGGATLVFEVELLKIERRTEL [FKBP2] No

* * *

- Test system: HeLa Kyoto
- experiment.summary: solubility in G1/S (NP-40 vs SDS abundance) (log2 ratio); higher = more soluble
- applied.conditions: cell cycle stage: G1/S
value.kind: solubility in G1/S (log2)

Supply recorded solubility in G1/S (log2) for MEQPWPPPGPWSLPRAEGEAEEESDFDVFPSSPRCPQLPGGGAQMYSHGIELACQKQKEFVKSSVACKWNLAEAQQKLGSLALHNSESLDQEHAKAQTAVSELRQREEEWRQKEEALVQREKMCLWSTDAISKDVFNKSFINQDKRKDTEDEDKSESFMQKYEQKIRHFGMLSRWDDSQRFLSDHPYLVCEETAKYLILWCFHLEAEKKGALMEQIAHQAVVMQFIMEMAKNCNVDPRGCFRLFFQKAKAEEEGYFEAFKNELEAFKSRVRLYSQSQSFQPMTVQNHVPHSGVGSIGLLESLPQNPDYLQYSISTALCSLNSVVHKEDDEPKMMDTV [CDC37L1] here. 0.655

* * *

In this section we review reported melting temperature values for a set of sequences.
- System: HeLa Kyoto
- experiment.summary: melting temperature (median over replicates), in situ; higher = more thermally stable
- applied.conditions: cell cycle stage: mitosis
Response body: numeric value in °C, unit text excluded.

sequence.entry	result.unit	melting temperature
MTGQGQSASGSSAWSTVFRHVRYENLIAGVSGGVLSNLALHPLDLVKIRFAVSDGLELRPKYNGILHCLTTIWKLDGLRGLYQGVTPNIWGAGLSWGLYFFFYNAIKSYKTEGRAERLEATEYLVSAAEAGAMTLCITNPLWVTKTRLMLQYDAVVNSPHRQYKGMFDTLVKIYKYEGVRGLYKGFVPGLFGTSHGALQFMAYELLKLKYNQHINRLPEAQLSTVEYISVAALSKIFAVAATYPYQVVRARLQDQHMFYSGVIDVITKTWRKEGVGGFYKGIAPNLIRVTPACCITFVVYENVSHFLLDLREKRK [SLC25A32]	°C	56.7

Please examine the following record next.
Enter melting temperature (test system HeLa Kyoto) for MAGVACLGKAADADEWCDSGLGSLGPDAAAPGGPGLGAELGPGLSWAPLVFGYVTEDGDTALHLAVIHQHEPFLDFLLGFSAGTEYMDLQNDLGQTALHLAAILGETSTVEKLYAAGAGLCVAERRGHTALHLACRVGAHACARALLQPRPRRPREAPDTYLAQGPDRTPDTNHTPVALYPDSDLEKEEEESEEDWKLQLEAENYEGHTPLHVAVIHKDVEMVRLLRDAGADLDKPEPTCGRSPLHLAVEAQAADVLELLLRAGANPAARMYGGRTPLGSAMLRPNPILARLLRAHGAPEPEGEDEKSGPCSSSSDSDSGDEGDEYDDIVVHSSRSQTRLPPTPASKPLPDDPRPV [NFKBIB] 50

* * *

- Tested on: HeLa Kyoto
- experiment.summary: solubility in G1/S (NP-40 vs SDS abundance) (log2 ratio); higher = more soluble
- applied.conditions: cell cycle stage: G1/S
In this section we review reported solubility in G1/S (log2) values for a set of sequences.
Write the value as a bare number.

Recorded solubility in G1/S (log2), per entry:
sequence.entry	value.kind	measured.value
MAGKKNVLSSLAVYAEDSEPESDGEAGIEAVGSAAEEKGGLVSDAYGEDDFSRLGGDEDGYEEEEDENSRQSEDDDSETEKPEADDPKDNTEAEKRDPQELVASFSERVRNMSPDEIKIPPEPPGRCSNHLQDKIQKLYERKIKEGMDMNYIIQRKKEFRNPSIYEKLIQFCAIDELGTNYPKDMFDPHGWSEDSYYEALAKAQKIEMDKLEKAKKERTKIEFVTGTKKGTTTNATSTTTTTASTAVADAQKRKSKWDSAIPVTTIAQPTILTTTATLPAVVTVTTSASGSKTTVISAVGTIVKKAKQ [SAP30BP]	solubility in G1/S (log2)	0.144
MTLIEGVGDEVTVLFSVLACLLVLALAWVSTHTAEGGDPLPQPSGTPTPSQPSAAMAATDSMRGEAPGAETPSLRHRGQAAQPEPSTGFTATPPAPDSPQEPLVLRLKFLNDSEQVARAWPHDTIGSLKRTQFPGREQQVRLIYQGQLLGDDTQTLGSLHLPPNCVLHCHVSTRVGPPNPPCPPGSEPGPSGLEIGSLLLPLLLLLLLLLWYCQIQYRPFFPLTATLGLAGFTLLLSLLAFAMYRP [TMUB1]	solubility in G1/S (log2)	0.566
MEALPLLAATTPDHGRHRRLLLLPLLLFLLPAGAVQGWETEERPRTREEECHFYAGGQVYPGEASRVSVADHSLHLSKAKISKPAPYWEGTAVIDGEFKELKLTDYRGKYLVFFFYPLDFTFVCPTEIIAFGDRLEEFRSINTEVVACSVDSQFTHLAWINTPRRQGGLGPIRIPLLSDLTHQISKDYGVYLEDSGHTLRGLFIIDDKGILRQITLNDLPVGRSVDETLRLVQAFQYTDKHGEVCPAGWKPGSETIIPDPAGKLKYFDKLN [PRDX4]	solubility in G1/S (log2)	-0.00958

Supply recorded solubility in G1/S (log2) for MAEKFDCHYCRDPLQGKKYVQKDGHHCCLKCFDKFCANTCVECRKPIGADSKEVHYKNRFWHDTCFRCAKCLHPLANETFVAKDNKILCNKCTTREDSPKCKGCFKAIVAGDQNVEYKGTVWHKDCFTCSNCKQVIGTGSFFPKGEDFYCVTCHETKFAKHCVKCNKAITSGGITYQDQPWHADCFVCVTCSKKLAGQRFTAVEDQYYCVDCYKNFVAKKCAGCKNPITGKRTVSRVSHPVSKARKPPVCHGKRLPLTLFPSANLRGRHPGGERTCPSWVVVLYRKNRSLAAPRGPGLVKAPVWWPMKDNPGTTTASTAKNAP [FHL1] here. -0.37

Supply recorded solubility in G1/S (log2) for MVRTKADSVPGTYRKVVAARAPRKVLGSSTSATNSTSVSSRKAENKYAGGNPVCVRPTPKWQKGIGEFFRLSPKDSEKENQIPEEAGSSGLGKAKRKACPLQPDHTNDEKE [KIAA0101] here. -0.0358

Supply recorded solubility in G1/S (log2) for MDSPWDELALAFSRTSMFPFFDIAHYLVSVMAVKRQPGAAALAWKNPISSWFTAMLHCFGGGILSCLLLAEPPLKFLANHTNILLASSIWYITFFCPHDLVSQGYSYLPVQLLASGMKEVTRTWKIVGGVTHANSYYKNGWIVMIAIGWARGAGGTIITNFERLVKGDWKPEGDEWLKMSYPAKVTLLGSVIFTFQHTQHLAISKHNLMFLYTIFIVATKITMMTTQTSTMTFAPFEDTLSWMLFGWQQPFSSCEKKSEAKSPSNGVGSLASKPVDVASDNVKKKHTKKNE [TMEM38B] here. -0.0322
